Tested on: U2OS
experiment notes: Multiplex assay against U2OS
Assay type: toxicity, cell-based
protocol conditions: human, 48 h, 1 µM, compound concentration 1 uM, replicate 2
Respond with Y for Population Mitotic Cells (%) values of 70% and above, N for values below.

Request: Hello, I need to know if CCOC(=O)c1c(C)[nH]c2ccc3c(c12)CN1CCc2cc(OC)ccc2C1O3 (stereo not given) has measured Population Mitotic Cells (%) not below 70%. Thanks!
Response: N

Request: // inclusive: Population Mitotic Cells (%) at least 70%? input: `Cl.O=c1c2cccn2c2ccccc2n1CCCN1CCC(c2ccc(Cl)cc2)CC1`
Response: N

Request: Decide: Population Mitotic Cells (%) of `Cc1ccc(C(=O)Nc2cccc(C(F)(F)F)c2)cc1Nc1nc(-c2cccnc2)nc2c1cnn2C` >= 70%?
Response: N

Request: # check: Population Mitotic Cells (%) of `CCn1c(=O)c(-c2ccc(-c3cncs3)cc2Cl)cc2cnc(Nc3ccc(N4CCN(C)CC4)cc3)nc21` is greater than or equal to 70%
Response: N

Request: Decide: is the reported value of Population Mitotic Cells (%) for `O=C(Nc1ccc(-n2nc(-c3cccnc3)cc2C(F)(F)F)cn1)c1ccc(-c2ccccc2)c(F)c1` equal to or greater than 70%?
Response: Y

----------
Test system: Fibroblast
experiment notes: Multiplex assay against human fibroblast
Type: toxicity, cell-based
protocol conditions: 24 h, 10 µM, compound concentration 10 uM, replicate 1
Examples of compounds with documented Population Fragmented Nuclei (%) follow.
# include the unit after the value

| compound | Population Fragmented Nuclei (%) |
| --- | --- |
| COc1ccc(-c2ccc3c(N4CCOCC4)nc(N4C[C@@H](C)O[C@@H](C)C4)nc3n2)cc1CO [Ku-0063794] | 72% |
| CCc1cccc(CC)c1NC(=O)c1nn(C)c2c1CCc1cnc(Nc3ccc(N4CCN(C)CC4)cc3OC)nc1-2 | 37% |

Entry COCC(=O)NC/C=C/c1ccc2ncnc(Nc3ccc(Oc4ccc(C)nc4)c(C)c3)c2c1 [CP-724714] — recorded Population Fragmented Nuclei (%) = 34%

Data point: `COC(=N)c1nc2ccc3ncnc(Nc4ccc(OC)cc4F)c3c2s1` ; Population Fragmented Nuclei (%) = 20%

Note to self: Population Fragmented Nuclei (%) recorded for `CNC(=O)c1ccc(Nc2nc(OC3CCCC3)c3c(-c4ccc5nc(C)oc5c4)c[nH]c3n2)c(OC)c1` was 28%

The value of Population Fragmented Nuclei (%) measured for the compound CCOc1cc2ncc(C#N)c(Nc3ccc(OCc4ccccn4)c(Cl)c3)c2cc1NC(=O)/C=C/CN(C)C [NERATINIB] turned out to be 25%

Notebook: Cc1cn(-c2cc(NC(=O)c3ccc(C)c(Nc4nccc(-c5cccnc5)n4)c3)cc(C(F)(F)F)c2)cn1 [NILOTINIB] , Population Fragmented Nuclei (%) read as 45%

Lab book: Population Fragmented Nuclei (%) of COc1cccc2cc(-c3nc([C@H]4CC[C@H](C(=O)O)CC4)n4ncnc(N)c34)[nH]c12 [OSI-027] noted as 23%

Record CCCS(=O)(=O)Nc1ccc(F)c(C(=O)c2c[nH]c3ncc(Cl)cc23)c1F [PLX-4720] . Reported Population Fragmented Nuclei (%): 23%

For reference, reported Population Fragmented Nuclei (%) for `S=C(NCCCc1c[nH]cn1)NCCCN(Cc1ccc(Cl)c(Cl)c1)c1ccc(Br)cn1` stands at 24%

// `Cc1cc(C)c(S(=O)(=O)N(Cc2ccc(-c3cccc(S(C)(=O)=O)c3)cc2)Cc2ccc(C(F)(F)F)o2)c(C)c1` : Population Fragmented Nuclei (%) value = 34%
